Items are presented alongside their recorded protein stability index.
- Tested on: Saccharomyces cerevisiae
- test-protocol: protein stability index of tFT-peptide fusion (C-terminal peptide) (PSI (0-1 scale)); higher = more stable (slower turnover)
- applied-conditions: genetic background: wild type; temperature: 30 C
quantity-measured: protein stability index

• QLNLVVNGVRLN [YLR379W C-terminal 12 aa] = 0.655
• SETIEELLKEVE [HYR1 C-terminal 12 aa] = 0.7
• SKQEKPLSRPKD [GPI15 C-terminal 12 aa] = 0.684
• ATMALRKLVSRE [MSA2 C-terminal 12 aa] = 0.705
• LNTYVILFYTVY [YOL166W-A C-terminal 12 aa] = 0.263
• GARIGLQGYKSH [YNL184C C-terminal 12 aa] = 0.688
